target or test system: PDE1C (Homo sapiens (Human))
assay details: PDE1 inhibition assay, PDE1C
Format: biochemical
condition description: @ 10 μM compound; read-out: PDE1 C, % inhibition @ 10 μM
measurement label: inhibition at 10 µM (%)

For orientation, consider the following solved cases.
>>> value("Cc1cccnc1-c1cc(N[C@@H]2CCOC2)c2c(cnn2C(C)C)n1 [Example 39]")
59
>>> value("COc1ccncc1-c1cc(N[C@@H]2CCOC2)c2c(cnn2C(C)C)n1 [Example 31]")
76
>>> value("CCOc1ccc(-c2cc(N[C@@H]3CCOC3)c3c(cnn3C(C)C)n2)cc1 [Example 33]")
24
>>> value("CC(C)n1ncc2nc(-c3cccc4c3OCCO4)cc(N[C@@H]3CCOC3)c21 [Example 42]")
68
>>> value("CCCn1ncc2nc(-c3cccnc3OCC)cc(N3CCCC3)c21 [Example 18]")
64

A: COCc1cccc(-c2cc(N[C@@H]3CCOC3)c3c(cnn3C(C)C)n2)c1 [Example 45]
B: CCOc1ncccc1-c1ccn2c(C(C)(C)C)nc(C)c2n1 [Example 82]
C: CC(C)n1ncc2nc(-c3cncc(C#N)c3)cc(N[C@@H]3CCOC3)c21 [Example 44]
Rank items: key inhibition at 10 µM, increasing. Respond with an ordered listing of the labels, as requested.
B, C, A

----------
target or test system: PDE1C (Homo sapiens (Human), UniProt Q14123)
Sequence (Q14123 whole entry): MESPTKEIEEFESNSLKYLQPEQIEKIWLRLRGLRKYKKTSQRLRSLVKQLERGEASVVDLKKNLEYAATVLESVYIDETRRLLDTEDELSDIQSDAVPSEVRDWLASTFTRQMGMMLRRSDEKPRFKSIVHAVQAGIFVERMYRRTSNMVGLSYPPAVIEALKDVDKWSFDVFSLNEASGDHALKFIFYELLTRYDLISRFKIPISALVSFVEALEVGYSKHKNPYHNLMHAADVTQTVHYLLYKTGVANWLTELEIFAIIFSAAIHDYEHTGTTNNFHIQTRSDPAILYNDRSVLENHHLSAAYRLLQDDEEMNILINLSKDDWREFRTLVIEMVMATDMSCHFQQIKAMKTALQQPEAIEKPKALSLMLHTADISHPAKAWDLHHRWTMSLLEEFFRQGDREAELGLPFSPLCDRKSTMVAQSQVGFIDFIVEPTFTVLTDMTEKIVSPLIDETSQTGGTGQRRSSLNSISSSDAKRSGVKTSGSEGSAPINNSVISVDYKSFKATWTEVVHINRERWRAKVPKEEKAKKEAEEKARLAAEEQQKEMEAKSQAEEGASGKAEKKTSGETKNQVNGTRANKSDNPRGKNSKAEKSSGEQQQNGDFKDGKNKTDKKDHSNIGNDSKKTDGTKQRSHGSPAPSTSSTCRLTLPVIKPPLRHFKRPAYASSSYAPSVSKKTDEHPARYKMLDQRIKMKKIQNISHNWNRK
pIC50: −log10 of the molar value.
measurement label: pIC50

>>> value("CCOc1ncncc1-c1cc(NC2CCOC2)c2c(cnn2C(C)C)n1 (stereo in doubt) [Example 50]")
5.74

A: CCOc1ncccc1-c1ccn2c([C@H](C)CC)nc(C)c2n1 (single isomer, unassigned) [Example 84]
B: CCOc1ncccc1-c1cc(NC[C@H]2CCCO2)c2c(cnn2C(C)C)n1 [Example 7]
C: CCOc1ncccc1-c1nc2c(C)nn(C(C)C)c2cc1C [Example 63]
D: COc1cnc(C)c(-c2cc(N[C@@H]3CCOC3)c3c(cnn3C(C)C)n2)c1 [Example 51]
Order the records, beginning with the lowest pIC50 and ending with the highest. Please write the labels in the order that was asked for.
D, B, A, C
(D: 5.41, B: 5.77, A: 6.49, C: 6.76)

----------
target or test system: PDE1A (Homo sapiens (Human))
Sequence (P54750 whole entry): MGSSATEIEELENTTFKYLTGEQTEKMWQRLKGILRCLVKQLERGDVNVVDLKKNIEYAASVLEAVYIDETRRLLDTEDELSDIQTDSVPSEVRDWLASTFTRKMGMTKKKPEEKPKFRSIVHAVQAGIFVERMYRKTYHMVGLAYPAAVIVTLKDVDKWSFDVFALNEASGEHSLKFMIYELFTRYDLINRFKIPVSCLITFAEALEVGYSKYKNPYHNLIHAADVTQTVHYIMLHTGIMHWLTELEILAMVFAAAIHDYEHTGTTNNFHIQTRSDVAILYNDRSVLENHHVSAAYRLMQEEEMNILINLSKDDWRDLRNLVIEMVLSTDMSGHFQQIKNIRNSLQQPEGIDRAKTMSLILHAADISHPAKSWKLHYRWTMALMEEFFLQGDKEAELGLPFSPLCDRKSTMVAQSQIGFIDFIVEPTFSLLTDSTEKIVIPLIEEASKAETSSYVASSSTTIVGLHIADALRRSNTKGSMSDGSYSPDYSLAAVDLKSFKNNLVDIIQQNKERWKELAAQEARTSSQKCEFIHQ
assay details: PDE1 inhibition assay, PDE1A
Assay type: biochemical
condition description: @ 1 μM compound
measurement label: inhibition at 1 µM (%)

a: CCOc1ncccc1-c1cc(N2CCCC2)c2c(cnn2C2CCOC2)n1 (racemic) [Example 3]
b: CCOc1ncccc1-c1cc(NC2CCOC2)c2c(cnn2C2CCOC2)n1 (centres unmarked) [Example 2]
Determine, for a and b , which has the greater value of inhibition at 1 µM. In your reply, give the label of the chosen option.
a

A: CCOc1ncccc1-c1cc(NC2CCC(OC)C2)c2c(cnn2C)n1 (centres unmarked) [Example 88]
B: CCOc1ncccc1-c1cc(N2CCC(C)(F)C2)c2c(cnn2C)n1 (racemic) [Example 87]
Hi, I'm comparing A with B and wondering which one has the bigger number for inhibition at 1 µM. Any idea? State the label of the item chosen.
B
(B: 42%, A: 16%)

----------
# IC50 per entry for PDE1B (Homo sapiens (Human))
measurement label: IC50 (nM)

>>> value("CCOc1ncccc1-c1ccn2c(C3CC3)nc(C)c2n1")
121
>>> value("CCOc1ncccc1-c1cc(NCC2CCC(=O)N2C)c2c(n1)c(C)nn2C(C)C (racemic)")
11
>>> value("CCNc1cc(-c2cccnc2OCC)nc2c(C)nn(C(C)C)c12")
5
>>> value("CC(C)n1ncc2nc(-c3ccccc3C#N)cc(N[C@@H]3CCOC3)c21")
248
>>> value("CCCn1ncc2nc(-c3cccnc3OCC)cc(N[C@@H]3CCOC3)c21 (single isomer, unassigned) [Example 23]")
171
>>> value("CCOc1ncccc1-c1cc(N2CCCC2)c2c(cnn2C)n1")
640

P: CCOc1ncccc1-c1nc2c(C)nc(C(C)C)n2cc1C
Q: CCOc1ncccc1-c1cc(NC)c2c(cnn2C(C)C)n1
Please let me know which one, P or Q , has a lower measured IC50 value. Lab log: write the label of the selected item as the result.
P
(P: 17 nM, Q: 85 nM)
